Measured MIC, listed per entry for reference.
tested on: VRE12201; test: MIC, microdilution broth method; format: cell-based, Enterococcus faecalis; settings: VRE12201; in µg/mL

[
  {
    "smiles_text": "COCc1cccc(CN2CCN(c3cc4c(cc3F)c(=O)c(C(=O)O)cn4C3CC3)CC2)c1",
    "reported_property": "MIC",
    "experimental_value": "2-4"
  },
  {
    "smiles_text": "CCn1cc(C(=O)O)c(=O)c2cc(F)c(N3CCN(CCc4cccc5ccccc45)CC3)cc21",
    "reported_property": "MIC",
    "experimental_value": "4-8"
  }
]

The reported MIC of the compound `CCn1cc(C(=O)O)c(=O)c2cc(F)c(N3CCN(Cc4cccc(COC)c4)CC3)cc21` was 8

----------
test system: VRE12201; assay: MIC, microdilution broth method; assay type: cell-based, Enterococcus faecalis; conditions: ESKAPE panel, Gram-positive; in µg/mL
reported_property: MIC, VRE12201

[
  {
    "smiles_text": "C[C@H]1COc2c(N3CC[C@@H](N)C3)c(F)cc3c(=O)c(C(=O)O)cn1c23",
    "target_of_assay": "VRE12201",
    "MIC, VRE12201": "0.5-1"
  }
]

The reported MIC, VRE12201 of the molecule `C[C@H]1COc2c(N3CC[C@H](Nc4ncc(N)cn4)C3)c(F)cc3c(=O)c(C(=O)O)cn1c23` was ≤0.125

The reported MIC, VRE12201 of the molecule `Cc1cc(N2CCN(c3c(F)cc4c(=O)c(C(=O)O)cn5c4c3OC[C@@H]5C)CC2)nc(C(C)C)n1` was 0.5-1

----------
Measured MIC, listed per entry for reference.
tested on: VRE12204; assay: MIC, microdilution broth method; format: cell-based, Enterococcus faecium; conditions: VRE12204; in µg/mL
Lab note: jot the number down without any unit.

[
  {
    "compound": "CCn1cc(C(=O)O)c(=O)c2cc(F)c(N3CCN(Cc4ccc(-c5noc(C)n5)cc4)CC3)cc21 [Compound 3.36]",
    "MIC": 8
  },
  {
    "compound": "CCn1cc(C(=O)O)c(=O)c2cc(F)c(N3CCN(Cc4ccc(-c5csnn5)cc4)CC3)cc21 [ML-77-161]",
    "MIC": 16
  },
  {
    "compound": "CCn1cc(C(=O)O)c(=O)c2cc(F)c(N3CCN(Cc4cccc5c4OCO5)CC3)cc21 [ML-77-035]",
    "MIC": 8
  }
]

The reported MIC of the compound COCc1cccc(CN2CCN(c3cc4c(cc3F)c(=O)c(C(=O)O)cn4C3CC3)CC2)c1 [ML-83-036] was 16

The reported MIC of the compound CCn1cc(C(=O)O)c(=O)c2cc(F)c(N3CCN(CCc4cccc5ccccc45)CC3)cc21 [ML-77-173] was 4

The reported MIC of the compound CCn1cc(C(=O)O)c(=O)c2cc(F)c(N3CCN(Cc4ccc(N(C)C)cc4)CC3)cc21 [ML-77-113] was 0.25

----------
test system: EC12923; experiment: MIC, microdilution broth method; type: cell-based; conditions: EC12923; in µg/mL
reported_property: MIC
Lab note: jot the number down without any unit.

Reference set, count: 2
[
  {
    "compound": "C[C@H]1COc2c(N3CCC(n4cccn4)CC3)c(F)cc3c(=O)c(C(=O)O)cn1c23",
    "target_of_assay": "EC12923",
    "reported_property": "MIC",
    "experimental_value": 2
  },
  {
    "compound": "COC(=O)c1cnc(N2CCN(c3c(F)cc4c(=O)c(C(=O)O)cn5c4c3OC[C@@H]5C)CC2)nc1",
    "target_of_assay": "EC12923",
    "reported_property": "MIC",
    "experimental_value": 4
  }
]

Next compound, MIC to be filled in.
The reported MIC of the compound C[C@H]1COc2c(N3CCC(Nc4ncccn4)C3)c(F)cc3c(=O)c(C(=O)O)cn1c23 (stereo partly drawn) was 1
